- assayRemarks: NCI Yeast Anticancer Drug Screen. Data for the cln2 rad14 strain (AID 165)
- conditionDescription: S. cerevisiae cln2 rad14 strain, at 50.0 µM, hits give high values
The panel holds about 79,000 compounds, 15% with a hit somewhere; the sample as a whole holds those more often. Where a SMILES comes first, the peptide text is derived from it. The star is where a group is joined. Cbz = O=C(OCc1ccccc1)*
Classify on growth inhibition using range A: < 50%; range B: ≥ 50% and < 80%; range C: ≥ 80%

{"columns": ["compound", "class"],
 "data": [
  ["CCOC(=O)c1ccc(NC(=O)O/N=C(/Cl)CCl)cc1", "range B"],
  ["O=C1c2ccccc2-c2cc3ccccc3nc21", "range B"],
  ["Cc1nc2ccc(N=Nc3c(O)ccc4ccccc34)cc2[nH]1", "range B"],
  ["COC1/C=C\\OC2(C)Oc3c(C)c(O)c4c(O)c(c5[nH]c(-c6ccccc6)nc5c4c3C2=O)NC(=O)/C(C)=C\\C=C\\C(C)C(O)C(C)C(O)C(C)C(OC(C)=O)C1C (centres undefined)", "range C"],
  ["CC(C)C(Sc1nc(-c2ccccc2)c(-c2ccccc2)[nH]1)c1n[nH]c(=S)n1-c1ccccc1 (centres undefined)", "range C"],
  ["CC1(c2ccccc2)NC(=O)N(CC(=O)N(c2ccccc2)c2ccccc2)C1=O (centres undefined)", "range A"],
  ["OC(C1CCCC1=N/N=C1/CCCC1C(O)(C(F)(F)Cl)C(F)(F)Cl)(C(F)(F)Cl)C(F)(F)Cl (centres undefined)", "range C"],
  ["c1ccc(-c2cc(Nc3ccc4c(c3)OCO4)c3cc(C4CCCCC4)ccc3n2)cc1", "range B"],
  ["O=C1CSC(c2ccc(Cl)cc2)N1c1ccc(-c2ccc(-n3c(-c4ccccc4)nc4ccccc4c3=O)cc2)cc1 (centres undefined)", "range A"],
  ["O=C(Nc1ccc(-c2cn3ccccc3n2)cc1)c1cc(Br)ccc1O", "range A"],
  ["O=C(NC(Cc1ccc(O)cc1)C(=O)NC(Cc1ccccc1)C(=O)O)OCc1ccccc1 (stereo not drawn) (Cbz-Tyr-Phe-OH; configuration not given here)", "range A"],
  ["C/C(=N\\NC(N)=S)c1ccc(C2CCCCC2)cc1", "range C"],
  ["[O-][n+]1ccccc1Sc1nc(Sc2cccc[n+]2[O-])nc(Sc2cccc[n+]2[O-])n1", "range C"],
  ["COc1ccc(C(c2c(O)c3ccccc3oc2=O)N2CCOCC2)cc1 (centres undefined)", "range B"],
  ["NC(=S)NNc1c([N+](=O)[O-])cnn(-c2ccccc2)c1=O", "range A"],
  ["C/C(=N\\NC(=S)NC12CC3CC(CC(C3)C1)C2)c1ccccn1", "range C"],
  ["CC(=O)OC1CCCc2c1nc1ccccc1[n+]2[O-] (centres undefined)", "range A"]
]}
